test description: Reversed-phase TLC on RP-2 silanized plates (Rf)
Assay type: physicochemical
cond: silica gel 60 RP-2 F254 silanized; water:methanol:acetonitrile 60:20:20, ammonium acetate pH 7.4
Item-by-item account of RP (Rf from RP-2 TLC plate)
Just the number, please, no unit attached.

Worked examples follow.
[[record]]
compound = "C[C@](N)(Cc1ccc(O)c(O)c1)C(=O)O"
test_readout = "RP (Rf from RP-2 TLC plate)"
quantitative_result = 0.85

[[record]]
compound = "Clc1cccc(Cl)c1N=C1NCCN1"
test_readout = "RP (Rf from RP-2 TLC plate)"
quantitative_result = 0.73

[[record]]
compound = "O=C(N[C@H](CO)[C@H](O)c1ccc([N+](=O)[O-])cc1)C(Cl)Cl"
test_readout = "RP (Rf from RP-2 TLC plate)"
quantitative_result = 0.89

[[record]]
compound = "CCCCCOC(=O)Nc1nc(=O)n([C@@H]2O[C@H](C)[C@@H](O)[C@H]2O)cc1F"
test_readout = "RP (Rf from RP-2 TLC plate)"
quantitative_result = 0.9


// query Recorded RP (Rf from RP-2 TLC plate) of Cc1ccc(S(=O)(=O)NC(=O)NN2CC3CCCC3C2)cc1 (stereo not drawn) [gliclazide] , please.
// result 0.83

* * *

test description: Normal-phase TLC on silica gel 60 F254 (Rf)
Format: physicochemical
cond: water:methanol:acetonitrile 60:20:20, ammonium acetate pH 7.4
test readout: NP (Rf from NP TLC plate)

Worked examples follow.
[[record]]
compound = "OC(CCN1CCCCC1)(c1ccccc1)C1CC2C=CC1C2 (centres unmarked)"
test_readout = "NP (Rf from NP TLC plate)"
result = 0.68

[[record]]
compound = "CCCc1nn(C)c2c(=O)[nH]c(-c3cc(S(=O)(=O)N4CCN(C)CC4)ccc3OCC)nc12"
test_readout = "NP (Rf from NP TLC plate)"
result = 0.69

[[record]]
compound = "CN(C)CCCN1c2ccccc2Sc2ccccc21"
test_readout = "NP (Rf from NP TLC plate)"
result = 0.39

[[record]]
compound = "Cn1c(=O)c2c(ncn2C)n(C)c1=O"
test_readout = "NP (Rf from NP TLC plate)"
result = 0.82


Here's the next entry for you.
// query Recorded NP (Rf from NP TLC plate) of CN1C(=O)CC(=O)N(c2ccccc2)c2cc(Cl)ccc21 , please.
// result 0.95

* * *

Item-by-item account of k(IAM) retention factor
test description: HPLC on IAM (immobilized artificial membrane) column, retention factor
Assay type: physicochemical
cond: IAM.PC.DD.2 column; 10 mM phosphate buffer pH 7.4:acetonitrile 80:20
Just the number, please, no unit attached.

[[record]]
compound = "CC(=O)CC(c1ccc([N+](=O)[O-])cc1)c1c(O)c2ccccc2oc1=O (stereo not drawn)"
quantitative_result = 0.53

[[record]]
compound = "O=c1n(CCCN2CCN(c3cccc(Cl)c3)CC2)nc2ccccn12"
quantitative_result = 9.30

[[record]]
compound = "CN(C)CCOC(c1ccccc1)c1ccccc1 [diphenhydramin]"
quantitative_result = 3.66

[[record]]
compound = "O=C1Nc2ccc(Cl)cc2C(c2ccccc2)=NC1O (stereo not drawn)"
quantitative_result = 4.78


// query Recorded k(IAM) retention factor of O=C(O)COC(=O)Cc1ccccc1Nc1c(Cl)cccc1Cl , please.
// result 2.63

// query Recorded k(IAM) retention factor of CCN(CC)C(=O)Nc1ccc(OCC(O)CNC(C)(C)C)c(C(C)=O)c1 (stereo not drawn) , please.
// result 5.87

// query Recorded k(IAM) retention factor of CC(C)NCC(O)COc1cccc2[nH]ccc12 (stereo not drawn) , please.
// result 6.09

// query Recorded k(IAM) retention factor of COc1ccc(CCN2CCC(Nc3nc4ccccc4n3Cc3ccc(F)cc3)CC2)cc1 , please.
// result 26.27

// query Recorded k(IAM) retention factor of CCOC(=O)C1=C(COCCN)NC(C)=C(C(=O)OC)C1c1ccccc1Cl (stereo not drawn) , please.
// result 98.90
